Kindly state EC50 for each of the entries shown.
# Tested on: HCV type 1b replicon in Huh-7 luc/neo (Huh-Luc) cells
# test_protocol: HCV replicon assay (Huh-Luc, luciferase)
# condition: Hepatitis C virus, Huh-7, 72 h
Answers are plain numbers, in nM.

Examples with their reported EC50 follow.
* COc1ccc2c(c1)C(C)=C1Cn3c-2c(C2CCCCC2)c2ccc(cc23)C(=O)NS(=O)(=O)N(C)CCOCCN(C)C1=O | 78
* COc1ccc2c(c1)C=C1Cn3c-2c(C2CCCCC2)c2ccc(cc23)C(=O)NS(=O)(=O)N(C)CC=CCNC1=O | 390

Give EC50 for each of the items listed below.
1. COc1ccc2c(c1)[C@H]1C[C@@]13Cn1c-2c(C2CCCCC2)c2ccc(cc21)C(=O)NS(=O)(=O)N(C)CCOCCN(C)C3=O
2. COc1ccc2c(c1)C=C1Cn3c-2c(C2CCCCC2)c2ccc(cc23)C(=O)NS(=O)(=O)N(C)CCCCN(C)C1=O
3. COc1ccc2c(c1)C(C)=C1Cn3c-2c(C2CCCCC2)c2ccc(cc23)C(=O)NS(=O)(=O)N(C)CCCCN(C)C1=O
4. CN1CCOCCN(C)S(=O)(=O)NC(=O)c2ccc3c(C4CCCCC4)c4n(c3c2)CC(=Cc2cc(Cl)ccc2-4)C1=O

1: 800; 2: 79; 3: 170; 4: 280

These measurements were taken from patent US9427440B2.
